In this section, each of the compounds is paired with its reported pEC50.
molecular target: human GRP receptors (Homo sapiens); experiment: IP1 GRPR activity: HTRF IP1-Gq assay in U2OS cells stably expressing human GRP receptors; settings: 90 minutes incubation, read-out: hIP1 GRPR EC50
pEC50: −log10 of the molar value. Starred links: 1 amine or outer side, 2 acyl side, 3 side chain; linkers in the order of their positions; H or OH if unused. Non-standard residues stand in square brackets, D forms with d. Residues, ends and D or L forms follow the SMILES beside them. *: point of attachment. Trp(7-Me) = Cc1cccc2c(C[C@H](N)C(=O)O)c[nH]c12; C20 diacid = O=C(O)CCCCCCCCCCCCCCCCCCC(=O)*; C18 diacid = O=C(O)CCCCCCCCCCCCCCCCC(=O)*; γGlu = O=C(O)[C@H](CCC(=O)[*:2])N[*:1]; NMeH = CN[C@@H](Cc1c[nH]cn1)C(=O)O; Nle = CCCC[C@H](N)C(=O)O; β3hA = C[C@H](N)CC(=O)O; AEEA = NCCOCCOCC(=O)O; Sar = CNCC(=O)O

Lookup: Look up pEC50 of CCCC[C@H](NC(=O)[C@H](CC(C)C)NC(=O)[C@H](Cc1cnc[nH]1)N(C)C(=O)C[C@H](C)NC(=O)[C@@H](NC(=O)[C@H](C)NC(=O)[C@H](Cc1c[nH]c2c(C)cccc12)NC(=O)[C@H](Cc1c[nH]cn1)NC(=O)[C@H](CCC(N)=O)NC(=O)CNC(=O)COCCOCCNC(=O)COCCOCCNC(=O)CC[C@H](NC(=O)CC[C@H](NC(=O)CCCCCCCCCCCCCCCCCCC(=O)O)C(=O)O)C(=O)O)C(C)C)C(N)=O [Peptide 270] ({C20 diacid-γGlu-γGlu-AEEA-AEEA}-GQH[Trp(7-Me)]AV[β3hA][NMeH]L[Nle]-NH2) and report it.
Found: 8.42

Lookup: Please give the documented pEC50 of CCCC[C@H](NC(=O)[C@H](CC(C)C)NC(=O)[C@H](Cc1c[nH]cn1)NC(=O)[C@@H](C)NC(=O)[C@@H](NC(=O)[C@H](C)NC(=O)[C@H](Cc1c[nH]c2ccccc12)NC(=O)[C@H](Cc1c[nH]cn1)NC(=O)[C@H](CC(N)=O)NC(=O)CNC(=O)COCCOCCNC(=O)COCCOCCNC(=O)CC[C@H](NC(=O)CCCCCCCCCCCCCCCCC(=O)O)C(=O)O)C(C)C)C(=O)N[C@@H](CCCNC(=N)N)C(N)=O [Peptide 114] ({C18 diacid-γGlu-AEEA-AEEA}-GNHWAV[dA]HL[Nle]R-NH2)
Found: < 5.00

We now examine a further compound.
Lookup: Output pEC50 of CCCC[C@H](NC(=O)[C@H](CC(C)C)NC(=O)[C@H](Cc1c[nH]cn1)NC(=O)[C@@H](C)NC(=O)[C@@H](NC(=O)[C@@H](C)NC(=O)[C@H](Cc1c[nH]c2ccccc12)NC(=O)[C@H](Cc1c[nH]cn1)NC(=O)[C@H](CC(N)=O)NC(=O)CNC(=O)COCCOCCNC(=O)COCCOCCNC(=O)CC[C@H](NC(=O)CCCCCCCCCCCCCCCCC(=O)O)C(=O)O)C(C)C)C(=O)N(C)CC(N)=O [Peptide 115] ({C18 diacid-γGlu-AEEA-AEEA}-GNHW[dA]V[dA]HL[Nle][Sar]-NH2)
Found: < 5.00

---

experiment: Pharmacokinetics after intravenous peptide administration in mice; parameters: species or system C57BL/6 mice; conditions: mouse, in vivo; C57BL/6 mice, IV 2 mg/kg, formulation of 0.4 mg/mL; read-out: T1/2 (converted)
Starred links: 1 amine or outer side, 2 acyl side, 3 side chain; linkers in the order of their positions; H or OH if unused. Non-standard residues stand in square brackets, D forms with d. Residues, ends and D or L forms follow the SMILES beside them. *: point of attachment. Trp(7-Me) = Cc1cccc2c(C[C@H](N)C(=O)O)c[nH]c12; C20 diacid = O=C(O)CCCCCCCCCCCCCCCCCCC(=O)*; γGlu = O=C(O)[C@H](CCC(=O)[*:2])N[*:1]; Nle = CCCC[C@H](N)C(=O)O; AEEA = NCCOCCOCC(=O)O; βAla = NCCC(=O)O
READOUT: half-life (h)
Numbers only; they are read as h.

Lookup: Name the recorded half-life of the compound listed here: CCCC[C@H](NC(=O)[C@H](CC(C)C)NC(=O)[C@H](Cc1c[nH]cn1)NC(=O)CCNC(=O)[C@@H](NC(=O)[C@H](C)NC(=O)[C@H](Cc1c[nH]c2c(C)cccc12)NC(=O)[C@H](Cc1c[nH]cn1)NC(=O)[C@H](CCC(N)=O)NC(=O)[C@H](CO)NC(=O)[C@H](CCC(=O)O)NC(=O)COCCOCCNC(=O)COCCOCCNC(=O)CC[C@H](NC(=O)CC[C@H](NC(=O)CCCCCCCCCCCCCCCCCCC(=O)O)C(=O)O)C(=O)O)C(C)C)C(N)=O [Peptide 257] ({C20 diacid-γGlu-γGlu-AEEA-AEEA}-ESQH[Trp(7-Me)]AV[βAla]HL[Nle]-NH2)
Found: 9.4

---

test: Pharmacokinetics after intravenous peptide administration in mice; set-up: species or system C57BL/6 mice; settings: C57BL/6, mouse, in vivo, iv, 2 mg/kg
Starred links: 1 amine or outer side, 2 acyl side, 3 side chain; linkers in the order of their positions; H or OH if unused. Non-standard residues stand in square brackets, D forms with d. Residues, ends and D or L forms follow the SMILES beside them. *: point of attachment. Trp(7-Me) = Cc1cccc2c(C[C@H](N)C(=O)O)c[nH]c12; C20 diacid = O=C(O)CCCCCCCCCCCCCCCCCCC(=O)*; γGlu = O=C(O)[C@H](CCC(=O)[*:2])N[*:1]; Nle = CCCC[C@H](N)C(=O)O; β3hA = C[C@H](N)CC(=O)O; AEEA = NCCOCCOCC(=O)O
READOUT: clearance (L/h/kg)
Just the number in L/h/kg, nothing appended.

Lookup: Note down clearance recorded for CCCC[C@H](NC(=O)[C@H](CC(C)C)NC(=O)[C@H](Cc1c[nH]cn1)NC(=O)C[C@H](C)NC(=O)[C@@H](NC(=O)[C@H](C)NC(=O)[C@H](Cc1c[nH]c2c(C)cccc12)NC(=O)[C@H](Cc1c[nH]cn1)NC(=O)[C@H](CCC(=O)O)NC(=O)CNC(=O)COCCOCCNC(=O)COCCOCCNC(=O)CC[C@H](NC(=O)CC[C@H](NC(=O)CCCCCCCCCCCCCCCCCCC(=O)O)C(=O)O)C(=O)O)C(C)C)C(N)=O [Peptide 247] ({C20 diacid-γGlu-γGlu-AEEA-AEEA}-GEH[Trp(7-Me)]AV[β3hA]HL[Nle]-NH2)
Found: 0.0108

New cases:
Lookup: Provide measured clearance value, entry: CSCC[C@H](NC(=O)[C@H](CC(C)C)NC(=O)[C@H](Cc1cnc[nH]1)NC(=O)CNC(=O)[C@@H](NC(=O)[C@H](C)NC(=O)[C@H](Cc1c[nH]c2ccccc12)NC(=O)[C@H](Cc1cnc[nH]1)NC(=O)[C@H](CC(N)=O)NC(=O)CN)C(C)C)C(N)=O [GRP10, G-N-H-W-A-V-G-H-L-M-NH2, reference compound]
Found: 272

---

biological target: human GRP receptors (Homo sapiens, UniProt P30550); test: IP1 GRPR activity: HTRF IP1-Gq assay in U2OS cells stably expressing human GRP receptors; settings: 90 minutes incubation, read-out: hIP1 GRPR EC50
Sequence (P30550 whole entry): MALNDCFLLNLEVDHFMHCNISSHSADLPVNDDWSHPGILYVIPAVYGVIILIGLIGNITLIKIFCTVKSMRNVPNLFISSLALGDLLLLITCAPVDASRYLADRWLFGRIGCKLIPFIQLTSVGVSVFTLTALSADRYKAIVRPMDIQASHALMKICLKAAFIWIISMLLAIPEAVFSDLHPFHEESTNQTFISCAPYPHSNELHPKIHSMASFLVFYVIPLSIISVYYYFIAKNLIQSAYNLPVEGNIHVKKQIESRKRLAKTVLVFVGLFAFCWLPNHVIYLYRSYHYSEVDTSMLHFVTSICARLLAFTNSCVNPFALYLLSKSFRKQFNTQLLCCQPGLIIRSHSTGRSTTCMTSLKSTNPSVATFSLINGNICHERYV
Starred links: 1 amine or outer side, 2 acyl side, 3 side chain; linkers in the order of their positions; H or OH if unused. Non-standard residues stand in square brackets, D forms with d. Residues, ends and D or L forms follow the SMILES beside them. *: point of attachment. Trp(7-Me) = Cc1cccc2c(C[C@H](N)C(=O)O)c[nH]c12; C20 diacid = O=C(O)CCCCCCCCCCCCCCCCCCC(=O)*; γGlu = O=C(O)[C@H](CCC(=O)[*:2])N[*:1]; NMeH = CN[C@@H](Cc1c[nH]cn1)C(=O)O; Nle = CCCC[C@H](N)C(=O)O; β3hA = C[C@H](N)CC(=O)O; AEEA = NCCOCCOCC(=O)O; βAla = NCCC(=O)O
Property: EC50; scope: individual compounds
Numeric only. Scale: nM

Lookup: Provide only the value of recorded EC50 for CCCC[C@H](NC(=O)[C@H](CC(C)C)NC(=O)[C@H](Cc1c[nH]cn1)NC(=O)CCNC(=O)[C@@H](NC(=O)[C@H](C)NC(=O)[C@H](Cc1c[nH]c2c(C)cccc12)NC(=O)[C@H](Cc1c[nH]cn1)NC(=O)[C@H](CCCNC(=N)N)NC(=O)CNC(=O)[C@H](CCC(=O)O)NC(=O)COCCOCCNC(=O)COCCOCCNC(=O)CC[C@H](NC(=O)CC[C@H](NC(=O)CCCCCCCCCCCCCCCCCCC(=O)O)C(=O)O)C(=O)O)C(C)C)C(N)=O [Peptide 252] ({C20 diacid-γGlu-γGlu-AEEA-AEEA}-EGRH[Trp(7-Me)]AV[βAla]HL[Nle]-NH2)
Found: 7.5

Shift focus to the following entry.
Lookup: Check the records and state EC50 for CCCC[C@H](NC(=O)[C@H](CC(C)C)NC(=O)[C@H](Cc1c[nH]cn1)N(C)C(=O)C[C@H](C)NC(=O)[C@@H](NC(=O)[C@H](C)NC(=O)[C@H](Cc1c[nH]c2c(C)cccc12)NC(=O)[C@H](Cc1c[nH]cn1)NC(=O)[C@H](CC(=O)O)NC(=O)CNC(=O)COCCOCCNC(=O)COCCOCCNC(=O)CC[C@H](NC(=O)CC[C@H](NC(=O)CCCCCCCCCCCCCCCCCCC(=O)O)C(=O)O)C(=O)O)C(C)C)C(N)=O [Peptide 278] ({C20 diacid-γGlu-γGlu-AEEA-AEEA}-GDH[Trp(7-Me)]AV[β3hA][NMeH]L[Nle]-NH2)
Found: 10.8

These measurements were taken from patent US20260176319A1.
